assay: In vivo pharmacokinetics in rats, single intravenous injection or oral gavage; conditions: male, SD, plasma; Rat, intravenous, single dose 2 mg/kg or 1 mg/kg (figure not given)
Measured half-life, listed per entry.
Just the number please, in h, no unit attached.

For this molecule ( Cc1nc(N2CCCC(F)(F)CC2)c(C(=O)Nc2ccc(F)c(C(N)=NC#N)c2)cc1Cl ), measured half-life is 0.325

For this molecule ( Cc1nc(N2CCCC(F)(F)CC2)c(C(=O)Nc2ccc(F)c(C(N)=NO)c2)cc1Cl ), measured half-life is 0.723

For this molecule ( COc1c([C@H]2[C@H](C(=O)Nc3ccnc(C(N)=O)c3)O[C@@](C)(C(F)(F)F)[C@H]2C)ccc(F)c1F [VX-548, reference compound] ), measured half-life is 0.67

For this molecule ( CC(C)c1nc(N2CCCC(F)(F)CC2)c(C(=O)Nc2ccc(F)c(C(N)=NO)c2)cc1Cl ), measured half-life is 2

For this molecule ( NC(=NO)c1cc(NC(=O)c2cc(Cl)c(C(F)(F)F)cc2N2CCCC(F)(F)CC2)ccc1F ), measured half-life is 2.67

For this molecule ( NC(=NO)c1cc(NC(=O)c2cc(Cl)c(C(F)(F)F)nc2N2CCCC(F)(F)CC2)ccc1F ), measured half-life is 3.28

For this molecule ( Cc1cc(F)ccc1Oc1cc(C(F)(F)F)ccc1C(=O)Nc1cc[nH]c(=O)c1 [VX-150, reference compound] ), measured half-life is 1.08
